Species: Rattus norvegicus
ASSAY COMMENT: Open TG-GATES - Regimen: Single
Format: toxicity, organism-based, Sprague-Dawley
Design: regimen Single, gender Male, age 6 weeks
RECORDED CONDITIONS: in vivo, po, 0 mg/kg, 6 h, tissue Blood, route gavage, dose level Control
QUANTITY NAME: MCHC

COMPOUND	QUANTITY NAME	MEAS VALUE
O=[N+]([O-])c1ccc(O)c([N+](=O)[O-])c1 [2,4-DINITROPHENOL]	MCHC	33.6%
C[C@H]1C(=O)O[C@@H]2CCN3CC=C(COC(=O)[C@](C)(O)[C@]1(C)O)[C@H]23 [MONOCROTALINE]	MCHC	33.9%
CCOC(=O)C(C)(C)Oc1ccc(Cl)cc1 [CLOFIBRATE]	MCHC	34.5%
C[C@H]1O[C@H](O[C@H]2[C@H](O)[C@@H](O)[C@@H](O[C@H]3[C@H](O)[C@@H](O)C(O)O[C@@H]3CO)O[C@@H]2CO)[C@H](O)[C@@H](O)[C@@H]1N[C@H]1C=C(CO)[C@@H](O)[C@H](O)[C@H]1O (some centres undefined) [ACARBOSE]	MCHC	32.3%

Hello, the source for this data is ChEMBL document CHEMBL3885861, in case you need it.
